Test system: MDA-MB-231 breast
Experiment: NCI tumour cell line growth inhibition, 48 h
Measured Endpoint: GI50

Lab book: GI50 of c1cnn2ncc(-c3ccnc(NCCCN4CCOCC4)n3)c2c1 noted as 8.04 µM

* * *

Parameter: GI50. Scope: all listed entries.
System: SK-OV-3 ovarian
Experiment: NCI tumour cell line growth inhibition, 48 h

Reference set (4 entries):
Compound	GI50
O=C(/C=C\c1cccc([N+](=O)[O-])c1)/C=C/c1cccc([N+](=O)[O-])c1	20 µM
O=C1CCC(N2Cc3cc(CNC(=O)C(F)(F)c4ccc(Cl)cc4)ccc3C2=O)C(=O)N1 (stereo not given)	> 100 µM
O=[N+]([O-])c1ccc(C=Cc2ccccc2)cc1.[C-]#[O+].[C-]#[O+].[C-]#[O+].[Cr]	22.9 µM
O=C(Nc1ccc(OCc2nnc(-c3ccc(Cl)cc3)o2)c(F)c1)Nc1ccc(Cl)c(C(F)(F)F)c1	3.3 µM

Next compound, please.
Recorded GI50 (compound O=C(/C=C/c1cc2ccccc2[nH]c1=O)/C=C/c1cc2ccccc2[nH]c1=O ): 31.4 µM

* * *

System: UACC-257 melanoma
Assay: NCI tumour cell line growth inhibition, 48 h
Measured Endpoint: TGI (µM)
Report the value in µM with no unit label.

Compound	Uom	TGI
O=C(NC1=C(Cl)C(=O)c2ccccc2C1=O)c1ccc(F)cc1	µM	7.43
CCOC(=O)c1c(C)nc2c1c(CN(C)C)c(O)c1[nH]c(C)c(C)nc12	µM	61.3
CS(=O)(=O)OCC1CN(S(C)(=O)=O)c2cc(O)ccc21 (centres undefined)	µM	7.72
COc1ccc(-c2cc(-c3ccc(C)cc3)nc3nc(=S)[nH]c(N)c23)cc1	µM	45.3
COc1cc2c(c(OC)c1)/C(=C/Sc1ccccc1)C(=O)N(C(C)(C)C)C2	µM	85.3

In plain terms, O=C1c2c(c3c4ccccc4[nH]c3c3ccc4ccccc4c23)C(=O)N1CCN1CCNCC1 has a documented TGI of 3.82

Entry CN1CCN(C(=O)c2cc(-c3ccc4ncnc(N5CCc6cc(F)c(Cl)cc65)c4c3)cnc2N)CC1 — recorded TGI = 3.52

The recorded TGI for O=C(CCCN1CCC2(CC1)CC(c1ccccc1)OC2=O)c1ccc(F)cc1 (centres undefined) is 52.1

The reported value for Cc1ccc(/C=C/C(=O)C(C)(C)CN2CCCCC2)cc1 in terms of TGI is 23.2

* * *

Let's look at some compounds and their measured TGI.
Test system: CAKI-1 renal
Assay: NCI tumour cell line growth inhibition, 48 h

Worked set:
Compound	TGI
CCC(=O)C12OC3OC(C)(C)OC3C1OC(C)(C)O2 (centres undefined)	> 100 µM
CC(C)(C)OC(=O)N/N=C(/N)Cc1ccc(Cl)cc1	> 100 µM
CSc1nc2c(c(=O)[nH]1)N=C(c1ccc([N+](=O)[O-])cc1)CC(c1ccccc1)N2 (centres undefined)	> 100 µM
CC(=O)Nc1ccc(SC#N)c2c(NC(C)=O)cccc12	> 100 µM

The value of TGI recorded for O=C1OC(=O)C(=C\c2ccc3c(c2)OCO3)/C1=C/c1ccc2c(c1)OCO2 when tested on CAKI-1 renal reads > 100 µM

Bench note, CAKI-1 renal: entry O=S1(=O)OCCOS(=O)(=O)C1(F)Br , its TGI = > 100 µM

Tested on CAKI-1 renal: C/C=C1\CN2CCc3c([nH]c4ccccc34)C2CC1C(=O)OC (centres undefined) . Observed TGI: > 322 µM

Item CC(=O)CN(Cc1cc(C)c2c(c1)c1ccccc1n2Cc1ccccc1)S(=O)(=O)c1ccc(C)cc1 ; assay system CAKI-1 renal; TGI reported as > 100 µM

Value sought: TGI, system CAKI-1 renal, item c1ccc2c(c1)C1CCCCCC21N1CCOCC1 (centres undefined) . Result: > 100 µM

Form: item CN1c2ccccc2C(=O)NC12CCN(CCCC(=O)c1ccc(F)cc1)CC2 ; test system CAKI-1 renal; TGI: > 100 µM

Reading of TGI for COc1cc2c(cc1C1COc3cc4occc4cc3C1=O)OCO2 (centres undefined) with CAKI-1 renal: > 100 µM

* * *

Tested on: NCI-H522 lung
Assay: NCI tumour cell line growth inhibition, 48 h
Measured Endpoint: TGI (µM)
I only need the number, in µM, no unit after it.

Example compounds with recorded TGI:
Compound	Measured Endpoint	Uom	Assay Value
Cc1ccc2c(C3Cc4ccccc4N3C(=O)/C=C\C(=O)O)c(C)[nH]c2c1 (configuration not stated)	TGI	µM	48.6
O=C(Nc1nc2ccc([N+](=O)[O-])cc2s1)C(=O)C(C(=O)c1ccccc1F)C1OC(=O)c2ccccc21 (configuration not stated)	TGI	µM	51.8

The compound COC1=CC(=O)C2=C(C1=O)[C@H]1CC[C@]3(C)[C@@H](O)CC[C@H]3[C@@H]1CC2 on NCI-H522 lung: TGI was 31.8

Form field TGI for item C=C(Br)CNC(=O)Nc1ccc(Cl)c(Cl)c1 on NCI-H522 lung: 57.4

* * *

Each entry below carries its reported TGI.
Tested on: LOX IMVI melanoma
Assay: NCI tumour cell line growth inhibition, 48 h

Molecule	Measured Endpoint	Assay Value
C=CCN1C(=O)/C(=C/c2cccs2)N=C1SC/C=C/C	TGI	> 100 µM
CCOC(=O)C1C(c2ccc3c(c2)OCO3)c2c([nH][nH]c2=O)CC1(C)O (stereo not given)	TGI	> 100 µM
CN(N=O)C(=O)ON1C(=O)CCC1=O	TGI	> 100 µM
COC(=O)[C@H](CCSC)NC(=O)N[C@H](C)c1ccccc1	TGI	> 100 µM

Test item O=C(NNCC(O)COc1ccccc1)c1ccccc1 (stereo not given) ; LOX IMVI melanoma; reported TGI was > 100 µM

Bench note, LOX IMVI melanoma: O=C1OCC2=C1C(c1ccccc1)c1cc3c(cc1N2)OCO3 (stereo not given) , TGI reads > 100 µM

* * *

// values below are reported TGI
System: K-562 leukemia
Assay: NCI tumour cell line growth inhibition, 48 h

Worked examples, 2 compounds total:
Compound Structure	TGI
CCOc1ccccc1C(=O)N1CCN(c2cc(Cl)cc(Cl)c2)CC1	25.8 µM
CC1=NN(C(=O)c2ccncc2)C(=O)C1	> 100 µM

Field: next compound
Observed TGI, K-562 leukemia, O=[N+]([O-])c1nccn1CCCNc1ccnc2cc(Cl)ccc12 : > 100 µM

* * *

Tested on: U251 CNS
Test: NCI tumour cell line growth inhibition, 48 h
Measured Endpoint: TGI

See these solved cases before continuing.
Compound	Assay System	Assay Value
O=C1NC(=O)C(N2C(=O)c3ccccc3C2=O)CC1O (stereo unspecified)	U251 CNS	> 100 µM
Cc1cc(S(=O)(=O)/N=C(/N)Nc2ccccc2O)c(SCc2ccccc2)cc1Cl	U251 CNS	30.5 µM
C#C[C@]1(O)CCCC2=CC(=O)CC[C@@]21C	U251 CNS	> 100 µM

Record COc1ccc(-c2[nH]c3ccccc3c2-c2ccc(OC)cc2)cc1 . Reported TGI: 16.8 µM

The reported TGI of the compound CCCc1c(-c2ccccc2)[nH]c2ccccc2c1=O was > 100 µM

Per the records, this compound ( c1cnn2ncc(-c3ccnc(NCCCN4CCOCC4)n3)c2c1 ) has TGI equal to > 25 µM

* * *

Tested on: SNB-19 CNS
Assay: NCI tumour cell line growth inhibition, 48 h
Measured Endpoint: TGI

Take a look at these entries with their results.
Compound	Assay Value
CCOc1ccccc1C(=O)N1CCN(c2cc(Cl)cc(Cl)c2)CC1	15.8 µM
O=[N+]([O-])c1ccc(C=Cc2ccccc2)cc1.[C-]#[O+].[C-]#[O+].[C-]#[O+].[Cr]	> 100 µM
Cc1ccc(-c2nnc(-c3nn(-c4ccccc4)c4nc5ccccc5nc34)o2)cc1	76 µM
COc1cc(N2C(=O)[C@H](O)C2c2ccc(SC)cc2)cc(OC)c1OC (some centres not stated)	> 100 µM
O=C1NC(=O)C2C(=O)NC(=O)C1C2c1c(Cl)cccc1Cl (configuration not stated)	> 100 µM
O=C(/C=C\c1cccc([N+](=O)[O-])c1)/C=C/c1cccc([N+](=O)[O-])c1	> 100 µM

Measured TGI of C#C[C@]1(O)CCCC2=CC(=O)CC[C@@]21C : > 100 µM

* * *

Tested on: UACC-257 melanoma
Test: NCI tumour cell line growth inhibition, 48 h
Entries and their TGI values follow.

Compound	TGI
CSc1nc2c(c(=O)[nH]1)N=C(c1ccc([N+](=O)[O-])cc1)CC(c1ccccc1)N2 (stereo not given)	> 100 µM
CO/N=C(\COc1ccc2c(c1)[nH]c1ccccc12)c1ccc(F)cc1	> 100 µM
CN(C)c1ccc(NN=C2SC(=Nc3ccccc3)C(=Nc3ccccc3)S2)cc1	> 100 µM

The value of TGI recorded for Cc1n[nH]c(=O)n1N1C(=O)CCCC1=O when tested on UACC-257 melanoma reads > 100 µM

Value sought: TGI, system UACC-257 melanoma, item O=C1NC(=O)C(N2C(=O)c3ccccc3C2=O)CC1O (stereo not given) . Result: > 100 µM

Source of measurements: PubChem BioAssay (NCI)
